# MEASURED_TARGET: recombinant human β-Klotho (UniProt Q86Z14 53-996)
# Sequence (Q86Z14 53-996): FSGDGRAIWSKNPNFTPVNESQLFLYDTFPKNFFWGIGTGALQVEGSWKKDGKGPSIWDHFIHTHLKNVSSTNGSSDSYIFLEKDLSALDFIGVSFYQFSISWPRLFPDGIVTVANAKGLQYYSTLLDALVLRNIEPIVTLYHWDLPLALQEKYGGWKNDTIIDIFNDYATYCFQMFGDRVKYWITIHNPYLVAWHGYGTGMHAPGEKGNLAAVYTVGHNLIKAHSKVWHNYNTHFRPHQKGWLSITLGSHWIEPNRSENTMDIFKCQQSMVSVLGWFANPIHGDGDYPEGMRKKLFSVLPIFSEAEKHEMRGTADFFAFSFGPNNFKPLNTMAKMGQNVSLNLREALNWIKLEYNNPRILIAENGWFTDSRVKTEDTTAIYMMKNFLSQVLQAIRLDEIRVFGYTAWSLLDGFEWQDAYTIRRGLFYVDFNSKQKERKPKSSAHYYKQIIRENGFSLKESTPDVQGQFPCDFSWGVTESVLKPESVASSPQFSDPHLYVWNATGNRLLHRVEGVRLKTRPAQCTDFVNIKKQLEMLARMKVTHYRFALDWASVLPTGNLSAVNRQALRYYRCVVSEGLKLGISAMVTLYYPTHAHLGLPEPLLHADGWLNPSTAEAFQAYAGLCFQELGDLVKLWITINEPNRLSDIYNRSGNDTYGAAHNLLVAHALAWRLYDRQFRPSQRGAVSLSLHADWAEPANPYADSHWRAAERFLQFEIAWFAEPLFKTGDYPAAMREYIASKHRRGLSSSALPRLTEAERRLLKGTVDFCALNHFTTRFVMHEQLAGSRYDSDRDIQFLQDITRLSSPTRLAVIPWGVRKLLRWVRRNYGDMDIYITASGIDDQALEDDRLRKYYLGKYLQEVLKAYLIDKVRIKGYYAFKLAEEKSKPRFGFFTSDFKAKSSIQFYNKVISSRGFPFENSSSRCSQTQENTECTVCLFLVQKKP
# EXPERIMENTAL_PROTOCOL: ELISA
pEC50: −log10 of the molar value.
RECORDED_METRIC: pEC50

Sample β-Klotho walked dimer bKWD01 (designed binder) CLPDEFQCGSGRCIPQHWLCDGLNDCGDGSDEPPAHCSAPASEPPGSLCRAGEFRCSNGRCVPLTWLCDGEDDCQDNSDEKNCAQPT — what was its pEC50?
> 9.40
